Where do these numbers come from? They come from ChEMBL document CHEMBL2163248.

Biological target: Solute carrier organic anion transporter family member 2B1 (Homo sapiens, UniProt O94956)
Sequence (O94956 whole entry): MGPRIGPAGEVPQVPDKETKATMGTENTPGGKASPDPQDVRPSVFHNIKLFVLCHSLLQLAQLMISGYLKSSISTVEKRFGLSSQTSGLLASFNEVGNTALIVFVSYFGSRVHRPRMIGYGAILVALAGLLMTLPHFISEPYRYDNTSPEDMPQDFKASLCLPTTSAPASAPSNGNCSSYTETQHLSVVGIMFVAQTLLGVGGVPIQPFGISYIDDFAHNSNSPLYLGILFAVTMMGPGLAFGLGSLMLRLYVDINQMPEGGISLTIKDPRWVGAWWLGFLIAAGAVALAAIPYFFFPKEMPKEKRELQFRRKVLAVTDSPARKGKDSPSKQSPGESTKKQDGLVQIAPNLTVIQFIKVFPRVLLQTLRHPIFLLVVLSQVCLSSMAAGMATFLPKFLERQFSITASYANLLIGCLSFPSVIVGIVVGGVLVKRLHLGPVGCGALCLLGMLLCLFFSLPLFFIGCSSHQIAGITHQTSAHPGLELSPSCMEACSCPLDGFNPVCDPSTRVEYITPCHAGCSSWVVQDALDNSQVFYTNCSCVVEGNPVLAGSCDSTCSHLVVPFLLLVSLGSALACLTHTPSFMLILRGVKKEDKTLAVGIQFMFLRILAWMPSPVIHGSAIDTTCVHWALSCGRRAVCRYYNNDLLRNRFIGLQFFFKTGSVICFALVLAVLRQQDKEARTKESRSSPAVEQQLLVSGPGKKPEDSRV
Experiment: Inhibition of human liver OATP2B1 expressed in HEK293 Flp-In cells assessed as reduction in [3H]E3S uptake at 20 uM incubated for 5 mins by scintillation counting
Conditions: hek293, 5 min
Label 1 (yes) when INH is strictly below 30%; at or above that, label 0 (no).

Example results:
Bench note: check whether CC(C)NCC(O)COc1cccc2ccccc12 (centres undefined) [PROPRANOLOL] shows INH below 30%
1 (yes)

Bench note: check whether COc1cc2c(c(OC)c1OC)-c1ccc(OC)c(=O)cc1[C@@H](NC(C)=O)CC2 [COLCHICINE] shows INH below 30%
1 (yes)

Bench note: check whether C[C@H](CCC(=O)NCCS(=O)(=O)O)[C@H]1CC[C@H]2[C@@H]3CC[C@@H]4C[C@H](O)CC[C@]4(C)[C@H]3C[C@H](O)[C@]12C [TAURODEOXYCHOLIC ACID] shows INH below 30%
0 (no)

Bench note: check whether CNC(=O)c1cccnc1 [NICOTINYL METHYLAMIDE] shows INH below 30%
1 (yes)

Bench note: check whether Nc1ccc(S(=O)(=O)Nc2ccnn2-c2ccccc2)cc1 [SULFAPHENAZOLE] shows INH below 30%
1 (yes)

Bench note: check whether C[C@H](CCC(=O)NCCS(=O)(=O)O)[C@H]1CC[C@H]2[C@@H]3CC[C@@H]4C[C@H](O)CC[C@]4(C)[C@H]3CC[C@]12C [TAUROLITHOCHOLIC ACID] shows INH below 30%
0 (no)

Continuing:
Bench note: check whether COCCCC/C(=N\OCCN)c1ccc(C(F)(F)F)cc1 [FLUVOXAMINE] shows INH below 30%
0 (no)

Bench note: check whether C/C=C/C[C@@H](C)C(=O)[C@H]1C(=O)N[C@@H](C(C)C)C(=O)N(C)CC(=O)N(C)[C@@H](CC(C)C)C(=O)N[C@@H](C(C)C)C(=O)N(C)[C@@H](CC(C)C)C(=O)N[C@@H](C)C(=O)N[C@H](C)C(=O)N(C)[C@@H](CC(C)C)C(=O)N(C)[C@@H](CC(C)C)C(=O)N(C)[C@@H](C(C)C)C(=O)N1C [VALSPODAR] shows INH below 30%
0 (no)

Bench note: check whether CSCC[C@H](NC(=O)[C@H](Cc1ccc(OS(=O)(=O)O)cc1)NC(=O)[C@@H](N)CC(=O)O)C(=O)NCC(=O)N[C@@H](Cc1c[nH]c2ccccc12)C(=O)N[C@@H](CCSC)C(=O)N[C@@H](CC(=O)O)C(=O)N[C@@H](Cc1ccccc1)C(N)=O [SINCALIDE] shows INH below 30%
0 (no)

Bench note: check whether O=c1c(-c2ccc(O)cc2)coc2cc(O)ccc12 [DAIDZEIN] shows INH below 30%
0 (no)

Bench note: check whether CN1C(C(=O)Nc2ccccn2)=C(O)c2ccccc2S1(=O)=O [PIROXICAM] shows INH below 30%
0 (no)

Bench note: check whether O=c1c(O)c(-c2ccc(O)cc2O)oc2cc(O)cc(O)c12 [MORIN] shows INH below 30%
0 (no)

Bench note: check whether C=C(C)[C@@H]1CCC2=CC(=O)C[C@@H](C)[C@]2(C)C1 [NOOTKATONE] shows INH below 30%
1 (yes)

Bench note: check whether CC1(C)[C@@H](O[C@H]2O[C@H](C(=O)O)[C@@H](O)[C@H](O)[C@H]2O[C@@H]2O[C@H](C(=O)O)[C@@H](O)[C@H](O)[C@H]2O)CC[C@]2(C)[C@H]3C(=O)C=C4[C@@H]5C[C@@](C)(C(=O)O)CC[C@]5(C)CC[C@@]4(C)[C@]3(C)CC[C@@H]12 [GLYCYRRHIZIN] shows INH below 30%
1 (yes)
